Tested on: 874868-142-R-J2-PDC complex spheroids, growth % test/control;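 note: spheroids exposed to the compounds for 7 days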
Assay: Anticancer human tumor 874868-142-R-J2-PDC patient-derived head and neck squamous carcinoma cell line growth inhibition [CLK]; active = viability on the fitted dose curve at most 10% of control; inactive = the rest
Conditions: second compound 10 µM; first compound 0.01 µM
Pick from active, inactive when you respond.

CCc1c2c(nc3ccc(O)cc13)-c1cc3c(c(=O)n1C2)COC(=O)[C@]3(O)CC + CNC(=O)c1ccc(Nc2nc(OC3CCCC3)c3c(-c4ccc5nc(C)oc5c4)c[nH]c3n2)c(OC)c1 | inactive
COc1c(OCCCN2CCOCC2)ccc2c3n(c(=NC(=O)c4cnc(N)nc4)nc12)CCN3 + CN1CCN(c2cc(C(=O)Nc3cc4cc(-c5cnn(C)c5)ccc4cn3)ccn2)CC1 | active
CCN1CCN(Cc2ccc(Nc3ncc(F)c(-c4cc(F)c5nc(C)n(C(C)C)c5c4)n3)nc2)CC1 + CNC(=O)c1ccc(Nc2nc(OC3CCCC3)c3c(-c4ccc5nc(C)oc5c4)c[nH]c3n2)c(OC)c1 | inactive

Consider now this further compound.
Tell me the assay call for CCN1CCN(Cc2ccc(Nc3ncc(F)c(-c4cc(F)c5nc(C)n(C(C)C)c5c4)n3)nc2)CC1 + CN1CCN(c2cc(C(=O)Nc3cc4cc(-c5cnn(C)c5)ccc4cn3)ccn2)CC1 please.
active
